B1: TPR 5TU (parent)
chain: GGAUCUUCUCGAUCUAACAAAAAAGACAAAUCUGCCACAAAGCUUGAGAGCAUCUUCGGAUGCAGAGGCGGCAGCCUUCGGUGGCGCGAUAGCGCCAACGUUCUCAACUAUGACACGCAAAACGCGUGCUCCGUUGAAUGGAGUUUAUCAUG

- Variants of: B1
- Test Name: polymerase ribozyme fitness, log enrichment relative to wild type (log ratio); higher = more active; in vitro selection for triplet polymerase activity
Fewer inactive variants are shown than the library holds.
So I've got a bunch of variants here, and I need their polymerase ribozyme fitness (log ratio) values.
Answer with the value's number alone.

Q: # get_value(readout='polymerase ribozyme fitness (log ratio)', item= A20U C96G A150U )
Result: 0.47

Q: # get_value(readout='polymerase ribozyme fitness (log ratio)', item= C95U A98G C105U )
Result: 0.768

Q: # get_value(readout='polymerase ribozyme fitness (log ratio)', item= G84A A120C C125U G136A )
Result: 0.204

Q: # get_value(readout='polymerase ribozyme fitness (log ratio)', item= G88A G117U )
Result: -3.84

Q: # get_value(readout='polymerase ribozyme fitness (log ratio)', item= A30C C93U A106U C131A A142C )
Result: -4.12

Q: # get_value(readout='polymerase ribozyme fitness (log ratio)', item= G58A A121C )
Result: 0.557

Q: # get_value(readout='polymerase ribozyme fitness (log ratio)', item= A52C A73G C85A )
Result: -3.88

Q: # get_value(readout='polymerase ribozyme fitness (log ratio)', item= C85U C103U )
Result: -2.17

Q: # get_value(readout='polymerase ribozyme fitness (log ratio)', item= G84U G136A G141C )
Result: -1.29

Q: # get_value(readout='polymerase ribozyme fitness (log ratio)', item= U13C A120G U130A )
Result: -3.95

Q: # get_value(readout='polymerase ribozyme fitness (log ratio)', item= A89U A121U )
Result: -0.72
